Value source: patent US7056679

# experimental_system: T1, DGI-2 polypeptide (UniProt Q15004 1-111, limits assumed)
# T1 construct: Soluble recombinant protein coated at 500 ng/well; vector tag of pIVEX2.3-MCS not described for this construct; also called KIAA0101
# T1 sequence (looked up): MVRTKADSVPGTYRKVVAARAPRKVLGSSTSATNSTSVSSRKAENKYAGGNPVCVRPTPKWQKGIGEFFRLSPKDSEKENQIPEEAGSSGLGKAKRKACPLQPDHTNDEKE
# protocol: phage ELISA
readout_label: DGI-2/LDH (ratio)

* RRFVRCSVPVALRSAVPVSVAAAGAPVPYPDPLEPRP [DGI-2-20F-PP-A10] | 2.4
* LFSATGCALMSGFCLGSDGSAAAGAPVPYPDPLEPRP [DGI-2-20R-3-C1] | 8.3
* WWREWVDGSLRGGGGTVLKDAAAGAPVPYPDPLEPRP [DGI-2-20R-3-A122] | 9.4
* DGI-2-40F-4-F97 (peptide) peptide: QVGGMTQVGATVLSVVTGRGSCDGEDAWYPPGVTVGLGLCAAAGAPVPYPDPLEPRP | 6.4
* RVSYEMLGRRRRSMHGSSMRAAAGAPVPYPDPLEPRP [DGI-2-20F-PP-A4] | 2.6
* SSVWATWGSDLRTFGSVGFLAAAGAPVPYPDPLEPRP [DGI-2-20F-PP-C7] | 2.6
* SLECWAMPGMVVRLVGCDGPAAAGAPVPYPDPLEPRP [DGI-2-20R-4-H112] | 6
* DRHRAFVAEGLDGFRHSTGVAAAGAPVPYPDPLEPRP [DGI-2-20F-PP-D4] | 2.3
* GITGLFCLCLRSSQSIAAAGAPVPYPDPLEPRP [DGI-2-20F-P0P-D6] | 3.2
* MGADTCMGGKMPFDQMFGAVAAAGAPVPYPDPLEPRP [DGI-2-20F-PP-E10] | 1.7
* KVWGCGARRGWERLGHLNQVAAAGAPVPYPDPLEPRP [DGI-2-20F-PP-B10] | 2.4
* DGI-2-40F-4-F122 (peptide) peptide: RSQVRVVSRERSTPVLHRIECLLFSGWCVTSGSDEGVVWGAAAGAPVPYPDPLEPRP | 5.7
